Tested on: Wnt pathway (Sp5-Luc reporter, TCF/LEF binding sites) in SW480 colon carcinoma cells
test_summary: Screening assay for Wnt activity: Sp5-Luc reporter gene assay;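 further: firefly luciferase luminescence read in stably transduced SW480 cells carrying the Sp5 promoter reporter with eight TCF/LEF sites, compounds given in 0.1% DMSO final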
Type: cell-based, human
study_conditions: Homo sapiens; Sp5-Luc reporter, SW480 cells, 36 to 48 hours
In this section we review reported log10 of EC50 values for a set of compounds.
Remember, log10 of EC50, in nM.

Worked examples follow.
O=C(Nc1cc2cc(-c3cnc4n3CCNC4)ccc2cn1)C1CCN(CC2(C(F)(F)F)CC2)CC1 = 3.46
Cc1nnc(-c2ccc3cnc(NC(=O)C4CCN(CCF)CC4)cc3c2)s1 = 3.00
C[C@@H](F)CN1CCC(C(=O)Nc2cc3cc(-c4cnn(C)c4)ccc3cn2)CC1 = 2.76
C[C@@H]1COCCN1CC(=O)Nc1cc2cc(-c3cnn(C)c3)ccc2cn1 = 3.86
Cn1cc(-c2ccc3cnc(NC(=O)C4CCN(Cc5ncco5)CC4)cc3c2)cn1 = 2.84
CN1CCC(C(=O)Nc2cc3cc(-c4cnn(C)c4CO)ccc3cn2)CC1 = 3.06

Q) What measured log10 of EC50 goes with CN1CCC(N2CCC(C(=O)Nc3cc4cc(-c5cncs5)ccc4cn3)CC2)CC1 ?
A) 3.98

---

tested_on: recombinant GSK3β kinase (Homo sapiens (Human), UniProt P49841)
Sequence (P49841 whole entry): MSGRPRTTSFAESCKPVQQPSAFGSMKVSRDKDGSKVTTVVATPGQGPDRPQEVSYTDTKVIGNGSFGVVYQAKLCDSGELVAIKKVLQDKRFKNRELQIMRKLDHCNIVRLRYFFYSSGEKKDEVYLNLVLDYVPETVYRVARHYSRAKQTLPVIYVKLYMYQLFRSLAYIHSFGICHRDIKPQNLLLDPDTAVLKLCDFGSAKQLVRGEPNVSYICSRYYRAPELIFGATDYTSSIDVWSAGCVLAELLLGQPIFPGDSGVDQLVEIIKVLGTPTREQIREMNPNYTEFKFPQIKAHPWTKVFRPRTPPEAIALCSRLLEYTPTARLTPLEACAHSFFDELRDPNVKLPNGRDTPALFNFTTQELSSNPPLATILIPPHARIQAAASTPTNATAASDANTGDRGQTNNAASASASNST
test_summary: GSK3β kinase assay (Ser/Thr 09 peptide Z-lyte FRET)
study_conditions: 46 μM ATP, 1 h room temperature
measure: EC50 (nM)
Please respond with the number in nM and leave the unit unwritten.

Worked examples follow.
[2H]C([2H])([2H])n1cc(-c2ccc3cnc(NC(=O)CN4CCN(C)CC4)cc3c2)cn1 = 96
Cc1nnc(-c2ccc3cnc(NC(=O)CN4CCOCC4)cc3c2)s1 = 8
Cn1cc(-c2ccc3cnc(NC(=O)[C@@H]4CCCO4)cc3c2)cn1 = 62
CN1CCN(CC23CC(C(=O)Nc4cc5cc(-c6cnn(C)c6)ccc5cn4)(C2)C3)CC1 = 937
Cn1cncc1-c1ccc2cnc(NC(=O)[C@H]3CCCO3)cc2c1 = 95

Q) What measured EC50 goes with CC(=O)N1CCC(C(=O)Nc2cc3cc(-c4cnn(C)c4)ccc3cn2)CC1 ?
A) 29

Q) What measured EC50 goes with Cn1cncc1-c1ccc2cnc(NC(=O)C3CCN(S(C)(=O)=O)CC3)cc2c1 ?
A) 12

Q) What measured EC50 goes with O=C(Nc1cc2cc(-c3cnc4n3CCNC4)ccc2cn1)C1CCN(C(=O)c2ccccc2)CC1 ?
A) 29

---

tested_on: recombinant DYRK1A kinase (Homo sapiens (Human), UniProt Q13627)
test_summary: DYRK1A kinase assay (Ser/Thr 18 peptide Z-lyte FRET);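 further: Read-out is the coumarin to fluorescein emission ratio, referenced to unphosphorylated (0%) and phosphorylated (100%) Ser/Thr 18 peptide controls, values from dose-response curves by non-linear regression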
study_conditions: 30 μM ATP, 1 h room temperature
In this section we review reported EC50 values for a set of compounds.
Please respond with the number in nM and leave the unit unwritten.

Worked examples follow.
CN1CCC(F)(C(=O)Nc2cc3cc(-c4cnn(C)c4)ccc3cn2)CC1 = 6.5
CN1CCC(C(=O)Nc2cc3cc(-c4cnn(C)c4)ccc3cn2)CC1 = 1.7
Cn1ncc(-c2ccc3cnc(NC(=O)C4CC5(C4)CN(CCF)C5)cc3c2)c1CN1CCCCC1 = 2.2
CC(C)OCCC(=O)Nc1cc2cc(-c3cncn3C)ccc2cn1 = 6.2

Q) What measured EC50 goes with Cn1cc(-c2ccc3cnc(NC(=O)[C@@H]4CCCO4)cc3c2)cn1 ?
A) 13.6

---

System: Tau phosphorylation at Ser396 (pSer396)
test_summary: Tau phosphorylation assay (pSer396 ELISA / western blot) in SH-SY5Y cells
Assay type: cell-based, human
study_conditions: Homo sapiens; SH-SY5Y cells, overnight (16-18 h) exposure; read-out: pSer396 Tau EC50
measure: EC50 (nM)
Please respond with the number in nM and leave the unit unwritten.

Worked examples follow.
Cn1cc(-c2ccc3cnc(NC(=O)C4CCN(C(=O)c5ccccc5)CC4)cc3c2)cn1 = 231
CC(C)CN1CCC[C@@H](C(=O)Nc2cc3cc(-c4cnn5c4CN(CCF)CC5)ccc3cn2)C1 = 1900

Q) Field: EC50 (Tau phosphorylation at Ser396 (pSer396)). Entry: Cn1cncc1-c1ccc2cnc(NC(=O)C(C)(C)F)cc2c1
A) 1300

Q) Field: EC50 (Tau phosphorylation at Ser396 (pSer396)). Entry: CO[C@H]1CC[C@H](C(=O)Nc2cc3cc(-c4cncn4C)ccc3cn2)CC1
A) 323

---

System: Tau phosphorylation at Ser396 (pSer396)
test_summary: Tau phosphorylation assay (pSer396 ELISA / western blot) in SH-SY5Y cells
Assay type: cell-based, human
study_conditions: Homo sapiens; SH-SY5Y cells, overnight (16-18 h) exposure; read-out: pSer396 Tau EC50
measure: EC50 (nM)
Please respond with the number in nM and leave the unit unwritten.

Worked examples follow.
CC(C)OCC(=O)Nc1cc2cc(-c3cncn3C)ccc2cn1 = 643
Cc1nnc(-c2ccc3cnc(NC(=O)CN4CCCOCC4)cc3c2)s1 = 319
C[C@@H](C(=O)Nc1cc2cc(-c3cnn(C)c3)ccc2cn1)N1CCCC1 = 200

Q) What measured EC50 goes with Cn1ncc(-c2ccc3cnc(NC(=O)C4CCOCC4)cc3c2)c1CN1CCCCC1 ?
A) 254

Q) What measured EC50 goes with C[C@H]1CN(CC(=O)Nc2cc3cc(-c4cnn(C)c4)ccc3cn2)CCO1 ?
A) 2400

Q) What measured EC50 goes with Cn1cc(-c2ccc3cnc(NC(=O)CC4CNCCO4)cc3c2)cn1 (centres unmarked) ?
A) 351

Q) What measured EC50 goes with O=C(Nc1cc2cc(-c3cnn4c3CN(CCF)CC4)ccc2cn1)C1CCN(CC2(C(F)(F)F)CC2)CC1 ?
A) 638

Q) What measured EC50 goes with CN1CCn2c(-c3ccc4cnc(NC(=O)C5CC5)cc4c3)cnc2C1 ?
A) 1200

---

tested_on: recombinant GSK3β kinase (Homo sapiens (Human), UniProt P49841)
test_summary: GSK3β kinase assay (Ser/Thr 09 peptide Z-lyte FRET);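 further: kinase activity read as coumarin to fluorescein emission ratio, 11-point threefold dilutions from 10 µM to 0.0003 µM in duplicate, unphosphorylated and phosphorylated peptide as 0% and 100% controls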
study_conditions: 46 μM ATP, 1 h room temperature
measure: log10 EC50 (log10 of the value in nM)
Remember, log10 of EC50, in nM.

Worked examples follow.
O=C(Nc1cc2cc(-c3cnco3)ccc2cn1)C1CCN(CCC(F)(F)F)CC1 = 2.03
CN1CCN(CC(=O)Nc2cc3cc(-c4cnn5c4CN(CCF)CC5)ccc3cn2)CC1 = 2.18
Cn1ncc(-c2ccc3cnc(NC(=O)[C@H]4CCCN4)cc3c2)c1CN1CCCCC1 = 2.21
CC(C)CN1CCC(C(=O)Nc2cc3cc(-c4cnn(C)c4)c(F)cc3cn2)CC1 = 1.95
CN1CCN(C[C@H]2CC[C@H](C(=O)Nc3cc4cc(-c5cnn(C)c5)ccc4cn3)CC2)CC1 = 1.77
O=C(CN1CCCCC1)Nc1cc2cc(-c3cncs3)ccc2cn1 = 2.12

Q) What measured log10 EC50 goes with COC(=O)[C@H]1CC[C@H](C(=O)Nc2cc3cc(-c4cnn(C)c4)ccc3cn2)CC1 ?
A) 1.60

Q) What measured log10 EC50 goes with Cn1cc(-c2ccc3cnc(NC(=O)C4CC4)cc3c2)nn1 ?
A) 0.00

---

In this section we review reported pEC50 values for a set of molecules.
System: Tau phosphorylation at Ser396 (pSer396)
test_summary: Tau phosphorylation assay (pSer396 ELISA / western blot) in SH-SY5Y cells;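 further: EC50 for reduction of Tau pSer396 in lysed cells, measured by colorimetric ELISA or chemiluminescent western blot, both using the same pSer396 antibody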
Assay type: cell-based, human
study_conditions: Homo sapiens; SH-SY5Y cells, overnight (16-18 h) exposure; read-out: pSer396 Tau EC50
Entry type: numeric. Quantity: pEC50, the -log10 of concentration in molar units.

Worked examples follow.
CCN1CCC(F)(C(=O)Nc2cc3cc(-c4cn(C)nn4)ccc3cn2)CC1 = 6.01
[2H]C([2H])(C(=O)Nc1cc2cc(-c3nnc(C)s3)ccc2cn1)N1CCOCC1 = 6.83
O=C(Nc1cc2cc(-c3cnco3)ccc2cn1)[C@H]1CCCO1 = 5.70
CN1CCC(C(=O)Nc2cc3cc(-c4cncs4)ccc3cn2)CC1 = 6.53

Q) Field: pEC50 (Tau phosphorylation at Ser396 (pSer396)). Entry: Cn1cc(-c2ccc3cnc(NC(=O)CN4CCCCC4)cc3c2)cn1
A) 6.51

---

In this section we review reported pEC50 values for a set of molecules.
tested_on: recombinant DYRK1A kinase (Homo sapiens (Human))
test_summary: DYRK1A kinase assay (Ser/Thr 18 peptide Z-lyte FRET)
study_conditions: 30 μM ATP, 1 h room temperature
Entry type: numeric. Quantity: pEC50, the -log10 of concentration in molar units.

CN1CCOC(CC(=O)Nc2cc3cc(-c4cnn(C)c4)ccc3cn2)C1 (centres unmarked) [Compound 350] = 8.21
CC(C)CN1CCC(C(=O)Nc2cc3cc(-c4cnn(C)c4CN4CCCCC4)ccc3cn2)CC1 [Compound 822] = 8.39
Cc1nnc(-c2ccc3cnc(NC(=O)CN4CCCOCC4)cc3c2)s1 [Compound 1049] = 8.16
Cn1cc(-c2ccc3cnc(NC(=O)[C@H]4CC[C@H](C(=O)O)CC4)cc3c2)cn1 [Compound 1032] = 8.92
COC(=O)[C@H]1CC[C@H](C(=O)Nc2cc3cc(-c4cnn(C)c4)ccc3cn2)CC1 [Compound 1084] = 8.77

Q) What measured pEC50 goes with O=C(Nc1cc2cc(-c3cnco3)ccc2cn1)C1CCN(C(=O)CN2CCCC2)CC1 [Compound 977] ?
A) 8.49

Q) What measured pEC50 goes with CC(C)CN1CCC[C@@H](C(=O)Nc2cc3cc(-c4cnn(C)c4)ccc3cn2)C1 [Compound 113] ?
A) 7.62

Q) What measured pEC50 goes with Cn1cc(-c2ccc3cnc(NC(=O)C4CCN(C5COC5)CC4)cc3c2)cn1 [Compound 86] ?
A) 8.60

Q) What measured pEC50 goes with [2H]C([2H])([2H])n1cc(-c2cc(F)c3cnc(NC(=O)CN4CCCCC4)cc3c2)cn1 [Compound 1016] ?
A) 7.54

Q) What measured pEC50 goes with Cn1cncc1-c1ccc2cnc(NC(=O)C3C(C)(C)C3(C)C)cc2c1 [Compound 269] ?
A) 8.30
